Hey, just so you know, these numbers are from patent US9481659B2.

Measured pEC50 accompanies every entry in the list below.
# TESTED_SYSTEM: S1P1/EDG1 (Homo sapiens)
# Sequence (P21453 whole entry): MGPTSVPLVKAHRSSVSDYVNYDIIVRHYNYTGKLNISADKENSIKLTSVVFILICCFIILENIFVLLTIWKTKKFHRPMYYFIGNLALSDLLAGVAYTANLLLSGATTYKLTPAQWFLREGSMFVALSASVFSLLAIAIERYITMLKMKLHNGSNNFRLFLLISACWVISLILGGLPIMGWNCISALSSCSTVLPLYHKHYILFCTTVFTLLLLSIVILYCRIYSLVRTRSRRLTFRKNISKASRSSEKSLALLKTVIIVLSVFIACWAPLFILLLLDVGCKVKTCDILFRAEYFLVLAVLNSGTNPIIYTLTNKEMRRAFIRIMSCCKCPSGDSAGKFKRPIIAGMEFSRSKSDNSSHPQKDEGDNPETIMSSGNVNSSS
# PROTOCOL: S1P1 CRE-bla CHOK1 reporter assay, inhibition of Forskolin induced cAMP
# Type: cell-based
# EXPERIMENTAL_PARAMETERS: agonist activity range; S1P1 CRE-bla CHOK1 cells, 2 μM Forskolin; read-out: S1P1 ACTIVITY
pEC50: −log10 of the molar value. Counter-ions that a name gives are not always drawn.
OBSERVED_PROPERTY: pEC50

>>> df
                                    molecule   assay_result
 0  CC(C)Oc1ccc(-c2ncc(-c3cccc4c3CC[C@H]4NC(=O)[C@@H](N)CO)s2)cc1C#N [Compound 79]  9.30 to 10.30
 1  CC(C)Oc1ccc(-c2nnc(-c3cccc4c3CCC[C@@H]4NCC(=O)N3CCCC3)s2)cc1C#N [Compound 304]   8.30 to 9.30
 2  CC(C)Oc1ccc(-c2nnc(-c3cccc4c3CC[C@H]4N)s2)cc1C#N [Compound 5, hydrochloride]   8.30 to 9.30
 3  CC(C)Oc1ccc(-c2nnc(-c3cccc4c3CCC[C@H]4NC(=O)CCN(C)C)s2)cc1C#N [Compound 257]         < 8.30
 4  CC(C)Oc1ccc(-c2ncc(-c3cccc4c3CC[C@H]4NC(=O)N3CCC(CO)CC3)s2)cc1C#N [Compound 195]   8.30 to 9.30
 5  CC(C)Oc1ccc(-c2nnc(-c3cccc4c3CCC[C@H]4NCc3cccnc3)s2)cc1C#N [Compound 263]   8.30 to 9.30
 6  CC(C)Oc1ccc(-c2ncc(-c3cccc4c3CC[C@H]4NC(=O)N3CCC[C@@H](O)C3)s2)cc1C#N [Compound 198]  9.30 to 10.30
 7  CC(C)Oc1ccc(-c2nnc(-c3cccc4c3CCC[C@H]4NCC(=O)O)s2)cc1C#N [Compound 301]  9.30 to 10.30
 8  CC(C)Oc1ccc(-c2nnc(-c3cccc4c3CCC[C@@H]4NC(=O)c3cccnc3)s2)cc1C#N [Compound 242]   8.30 to 9.30
 9  CC(C)Oc1ccc(-c2ncc(-c3cccc4c3CC[C@@H]4NC(=O)N3CCC[C@@H](O)C3)s2)cc1C#N [Compound 196]   8.30 to 9.30
10  COC(=O)N[C@@H]1CCc2c(-c3nnc(-c4ccc(OC(C)C)c(C#N)c4)s3)cccc21 [Compound 68]  9.30 to 10.30
11  CC(C)Oc1ccc(-c2ncc(-c3cccc4c3CC[C@H]4NC(=O)N3CCNCC3)s2)cc1C#N [Compound 188]   8.30 to 9.30
12  CC(C)Oc1ccc(-c2ncc(-c3cccc4c3CC[C@H]4O)s2)cc1C#N [Compound 69]  9.30 to 10.30
13  CC(C)Oc1ccc(-c2ncc(-c3cccc4c3CC[C@H]4NS(=O)(=O)C3CC3)s2)cc1C#N [Compound 117]  9.30 to 10.30
14  CC(C)Oc1ccc(-c2nnc(-c3cccc4c3CCC[C@@H]4NS(=O)(=O)CCCO)s2)cc1C#N [Compound 291]  9.30 to 10.30
15  CC(C)Oc1ccc(-c2nnc(-c3cccc4c3CC[C@H]4NC(=O)N3CC(C(=O)O)C3)s2)cc1C#N [Compound 50]  9.30 to 10.30
16  CC(C)Oc1ccc(-c2nnc(-c3cccc4c3CCC[C@@H]4NC(=O)c3ccccn3)s2)cc1C#N [Compound 243]         < 8.30
17  CC(C)Oc1ccc(-c2ncc(-c3cccc4c3CC[C@H]4NS(=O)(=O)CCN3CC[C@H](O)C3)s2)cc1C#N [Compound 134]   8.30 to 9.30
18  CC(C)Oc1ccc(-c2ncc(-c3cccc4c3CC[C@H]4NC(=O)CN3CCCC3)s2)cc1C#N [Compound 85]         < 8.30
